Data provenance is PubChem BioAssay AID1745844.

- Tested on: rodent lifetime carcinogenesis bioassay, tumor incidence TD50
- Test Summary: carcinogenic potency in animals, long-term in vivo studies, CPDB compilation (AID 1745844)
- Applied Conditions: mouse; strain B6C3F1; males; by gavage; site: forestomach; lesion: squamous-cell carcinoma; dosed 103 weeks; study length 104 weeks
Experimental Endpoint: TD50 (mg/kg/day)
# value in mg/kg/day; strip the unit string

Lab note: c1ccc2occc2c1 gave TD50 of 383

----------
- Tested on: rodent lifetime carcinogenesis bioassay, tumor incidence TD50
- Test Summary: carcinogenic potency in animals, long-term in vivo studies, CPDB compilation (AID 1745844)
- Applied Conditions: rat; strain Fischer 344; females; by gavage; site: lung; lesion: alveolar/bronchiolar adenoma; dosed 103 weeks; study length 104 weeks
Experimental Endpoint: TD50
Value and unit, in that order.

Here c1ccc2occc2c1 was tested on rodent lifetime carcinogenesis bioassay, tumor incidence TD50, and its TD50 came to 530 mg/kg/day

----------
- Test system: rodent lifetime carcinogenesis bioassay, tumor incidence TD50
- Test Summary: carcinogenic potency in animals, long-term in vivo studies, CPDB compilation (AID 1745844)
- Applied Conditions: mouse; strain BDF1; males; inhaled; site: forestomach; lesion: squamous-cell carcinoma; dosed 104 weeks; study length 104 weeks
Experimental Endpoint: TD50

Here C=C(C)CCl was tested on rodent lifetime carcinogenesis bioassay, tumor incidence TD50, and its TD50 came to 11500 mg/kg/day

----------
- Tested on: rodent lifetime carcinogenesis bioassay, tumor incidence TD50
- Test Summary: carcinogenic potency in animals, long-term in vivo studies, CPDB compilation (AID 1745844)
- Applied Conditions: rat; strain Osborne-Mendel; females; in feed; site: thyroid gland; lesion: c-cell adenoma; dosed 80 weeks; study length 109 weeks
Experimental Endpoint: TD50

Lab note: COP(=O)(OC)OC(=CCl)c1cc(Cl)c(Cl)cc1Cl gave TD50 of 1920 mg/kg/day

----------
- Tested on: rodent lifetime carcinogenesis bioassay, tumor incidence TD50
- Test Summary: carcinogenic potency in animals, long-term in vivo studies, CPDB compilation (AID 1745844)
- Applied Conditions: mouse; strain CDF1; males; in feed; site: forestomach; lesion: several types; types named in the paper; dosed 91 weeks; study length 91 weeks
Experimental Endpoint: TD50

Lab note: Cc1cc2ncccc2c2nc(N)n(C)c12 gave TD50 of 14.5 mg/kg/day

----------
- Tested on: rodent lifetime carcinogenesis bioassay, tumor incidence TD50
- Test Summary: carcinogenic potency in animals, long-term in vivo studies, CPDB compilation (AID 1745844)
- Applied Conditions: hamster; strain Syrian Golden; females; in drinking water; site: gall bladder; lesion: papilloma; dosed 90 weeks; study length 90 weeks
Experimental Endpoint: TD50

Lab note: CCOC(N)=O gave TD50 of 682 mg/kg/day

----------
- Tested on: rodent lifetime carcinogenesis bioassay, tumor incidence TD50
- Test Summary: carcinogenic potency in animals, long-term in vivo studies, CPDB compilation (AID 1745844)
- Applied Conditions: rat; strain Fischer 344; males; in feed; site: urinary bladder; lesion: malignant tumor; dosed 74 weeks; study length 74 weeks
Experimental Endpoint: TD50

Lab note: O=C1c2ccccc2C(=O)c2c(O)c(O)cc(O)c21 gave TD50 of 678 mg/kg/day

----------
- Test system: rodent lifetime carcinogenesis bioassay, tumor incidence TD50
- Test Summary: carcinogenic potency in animals, long-term in vivo studies, CPDB compilation (AID 1745844)
- Applied Conditions: rat; strain Fischer 344; males; in drinking water; site: thyroid gland; lesion: follicular-cell carcinoma; dosed 77 weeks; study length 77 weeks
Experimental Endpoint: TD50
Value and unit, in that order.

Lab note: [O-][Br+2]([O-])O gave TD50 of 34.8 mg/kg/day
